Recorded IC50, one value per entry.
target: UniProtKB P23385; assay: Signal transduction at the cloned rat mGluR1 receptor in CHO cells (glutamate-induced intracellular Ca2+ rise, FLIPR)
Sequence (P23385 19-1199): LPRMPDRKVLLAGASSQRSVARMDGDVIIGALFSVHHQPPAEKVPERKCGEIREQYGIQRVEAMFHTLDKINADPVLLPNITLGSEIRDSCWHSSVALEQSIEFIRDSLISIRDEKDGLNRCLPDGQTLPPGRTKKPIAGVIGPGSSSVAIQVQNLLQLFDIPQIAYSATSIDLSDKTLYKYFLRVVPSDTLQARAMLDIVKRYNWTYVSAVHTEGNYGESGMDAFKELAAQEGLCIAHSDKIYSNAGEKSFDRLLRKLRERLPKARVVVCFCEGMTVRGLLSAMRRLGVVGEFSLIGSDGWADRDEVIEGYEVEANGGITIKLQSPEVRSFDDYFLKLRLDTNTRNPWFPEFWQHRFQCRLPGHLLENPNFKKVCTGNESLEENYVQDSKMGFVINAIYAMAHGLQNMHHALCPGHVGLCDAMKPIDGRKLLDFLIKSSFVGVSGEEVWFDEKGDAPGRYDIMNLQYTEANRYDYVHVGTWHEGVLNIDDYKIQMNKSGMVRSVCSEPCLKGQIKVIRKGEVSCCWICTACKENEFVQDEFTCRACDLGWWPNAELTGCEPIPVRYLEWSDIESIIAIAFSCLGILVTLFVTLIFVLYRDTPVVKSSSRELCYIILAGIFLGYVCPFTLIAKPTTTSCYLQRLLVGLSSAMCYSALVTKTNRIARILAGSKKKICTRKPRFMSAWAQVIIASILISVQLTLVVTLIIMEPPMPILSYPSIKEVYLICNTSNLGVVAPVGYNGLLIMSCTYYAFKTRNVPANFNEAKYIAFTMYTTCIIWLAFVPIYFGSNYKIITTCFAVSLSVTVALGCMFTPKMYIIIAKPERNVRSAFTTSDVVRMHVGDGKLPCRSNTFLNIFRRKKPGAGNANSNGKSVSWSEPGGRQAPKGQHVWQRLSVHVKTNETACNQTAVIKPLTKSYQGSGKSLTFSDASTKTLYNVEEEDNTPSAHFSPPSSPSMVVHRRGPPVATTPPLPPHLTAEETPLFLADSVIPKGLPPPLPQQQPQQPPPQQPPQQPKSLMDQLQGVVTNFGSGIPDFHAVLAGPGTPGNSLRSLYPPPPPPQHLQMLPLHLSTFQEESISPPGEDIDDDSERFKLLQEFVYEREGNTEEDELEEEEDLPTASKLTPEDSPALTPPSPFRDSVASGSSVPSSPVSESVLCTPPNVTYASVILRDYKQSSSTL

| Compound structure | IC50 (nM) |
| --- | --- |
| CCc1cc2cc(C(=O)Cc3ccsc3)ccc2nc1C | 23.4 |
| CO[C@H]1CC[C@@H](C(=O)c2ccc3nc4c(cc3c2)CCCCC4)CC1 | 77.6 |
| O=C(Cc1ccsc1)c1ccc2nc3c(cc2c1)CCCS3 | 26.9 |
| CCc1cc2cc(C(=O)[C@H]3CC[C@@H](OC)CC3)ccc2nc1COC(C)=O | 89.1 |
